Each entry below lists one item and its recorded CC50 at 72 h value.
assay: Cytotoxicity against human C8166 cells after 72 hrs by MTT assay; assay type: cell-based
REPORTED ENDPOINT: CC50 at 72 h

> print(dat)
                                item.smiles  measured.value
1  CO[C@@H]1C(=O)C[C@]23CCN(C)[C@@]24C[C@@H](O[C@]14OC)c1cc2c(cc13)OCO2        > 536 µM
2  COc1cc2c(cc1OC)[C@@H]1Cc3ccc(OC)c(OC)c3C(=O)N1CC2          307 µM
3  CO[C@@H]1C(=O)C[C@]23C[C@H](CC(C)=O)N(C)[C@@]24C[C@@H](O[C@]14OC)c1cc2c(cc13)OCO2        > 466 µM
4  CO[C@@H]1C(=O)C[C@]23CC(=O)N(C)[C@@]24C[C@@H](O[C@]14OC)c1cc2c(cc13)OCO2        > 516 µM
5  CO[C@H]1C(=O)C[C@]23CCN(C)[C@@]24C[C@@H](O[C@]14OC)c1cc2c(cc13)OCO2        > 536 µM
6   COc1c(OC)c2c3c(nccc3c1OC)-c1cc(O)ccc1-2          493 µM

----------
test: Cytotoxicity against human HepG2.2.15 cells by MTT assay; format: cell-based, HepG2 2.2.15
REPORTED ENDPOINT: CC50 (µM)

> print(dat)
                                item.smiles  reported.endpoint  comparison.sign  measured.value
1  CO[C@@H]1C(=O)C[C@]23CCN(C)[C@@]24C[C@@H](O[C@]14OC)c1cc2c(cc13)OCO2               CC50                =            2960
2  COc1ccc2c(c1OC)C(=O)N1CCc3cc4c(cc3[C@@H]1C2)OCO4               CC50                >            3400
3   COc1c(OC)c2c3c(nccc3c1OC)-c1cc(O)ccc1-2               CC50                >            3880
4  CO[C@H]1C(=O)C[C@]23CCN(C)[C@@]24C[C@@H](O[C@]14OC)c1cc2c(cc13)OCO2               CC50                =             640
5  CO[C@@H]1C(=O)C[C@]23C[C@H](CC(C)=O)N(C)[C@@]24C[C@@H](O[C@]14OC)c1cc2c(cc13)OCO2               CC50                =            2060
6  CO[C@@H]1C(=O)C[C@]23CC(=O)N(C)[C@@]24C[C@@H](O[C@]14OC)c1cc2c(cc13)OCO2               CC50                =            2360
7  COc1cc2c(cc1OC)[C@@H]1Cc3ccc(OC)c(OC)c3C(=O)N1CC2               CC50                =            3000

----------
experiment: Selectivity index, ratio of CC50 for human C8166 cells to EC50 for HIV1; format: toxicity, cell-based; settings: read-out: Ratio CC50/EC50
Mark T only when selectivity ratio stays strictly below 3. Values equal to the cut-off are F.

> print(dat)
                                item.smiles  class
1  CO[C@H]1C(=O)C[C@]23CCN(C)[C@@]24C[C@@H](O[C@]14OC)c1cc2c(cc13)OCO2      T
2  Cc1cn([C@H]2C[C@H](N=[N+]=[N-])[C@@H](CO)O2)c(=O)[nH]c1=O      F
3  CO[C@@H]1C(=O)C[C@]23CCN(C)[C@@]24C[C@@H](O[C@]14OC)c1cc2c(cc13)OCO2      F
4  CO[C@@H]1C(=O)C[C@]23CC(=O)N(C)[C@@]24C[C@@H](O[C@]14OC)c1cc2c(cc13)OCO2      F
5  CO[C@@H]1C(=O)C[C@]23C[C@H](CC(C)=O)N(C)[C@@]24C[C@@H](O[C@]14OC)c1cc2c(cc13)OCO2      T
6  COc1cc2c(cc1OC)[C@@H]1Cc3ccc(OC)c(OC)c3C(=O)N1CC2      F
7   COc1c(OC)c2c3c(nccc3c1OC)-c1cc(O)ccc1-2      F

----------
tested on: Human immunodeficiency virus 1; experiment: Antiviral activity against HIV1 in human C8166 cells assessed as protection against viral-induced cytopathic effect by syncytium reduction assay; type: functional, organism-based; details: Human immunodeficiency virus 1, C8166
Each entry below lists one item and its recorded EC50 value.
REPORTED ENDPOINT: EC50

> print(dat)
                                item.smiles  measured.value
1  CO[C@@H]1C(=O)C[C@]23C[C@H](CC(C)=O)N(C)[C@@]24C[C@@H](O[C@]14OC)c1cc2c(cc13)OCO2          334 µM
2  CO[C@@H]1C(=O)C[C@]23CC(=O)N(C)[C@@]24C[C@@H](O[C@]14OC)c1cc2c(cc13)OCO2          162 µM
3  COc1cc2c(cc1OC)[C@@H]1Cc3ccc(OC)c(OC)c3C(=O)N1CC2         14.1 µM
4  CO[C@@H]1C(=O)C[C@]23CCN(C)[C@@]24C[C@@H](O[C@]14OC)c1cc2c(cc13)OCO2          204 µM
5  CO[C@H]1C(=O)C[C@]23CCN(C)[C@@]24C[C@@H](O[C@]14OC)c1cc2c(cc13)OCO2          389 µM
6  Cc1cn([C@H]2C[C@H](N=[N+]=[N-])[C@@H](CO)O2)c(=O)[nH]c1=O       0.0108 µM
7   COc1c(OC)c2c3c(nccc3c1OC)-c1cc(O)ccc1-2         10.9 µM
